molecular target: G13D (Homo sapiens, UniProt P01116, G13D); assay: Guanine nucleotide exchange (GNE) assay, G13D
Sequence (P01116 1-188 isoform P01116-2 G13D): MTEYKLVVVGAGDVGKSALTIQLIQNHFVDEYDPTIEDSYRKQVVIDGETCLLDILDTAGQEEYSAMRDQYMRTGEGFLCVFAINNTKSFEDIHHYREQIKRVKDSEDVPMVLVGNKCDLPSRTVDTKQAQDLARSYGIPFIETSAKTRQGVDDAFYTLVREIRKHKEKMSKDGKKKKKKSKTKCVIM
Criterion: IC50 strictly less than 50 nM. Met: criterion met. Not met: criterion not met.

Incoming: Determine whether this compound shows IC50 lower than 50 nM (ties excluded): C#Cc1cccc2cc(O)cc(-c3c(F)cc4c(N5CCCC(O)(C(F)F)C5)nc(OC[C@@]56CCCN5C[C@H](F)C6)nc4c3F)c12 (some centres unmarked) [Ex-43]
Outgoing: criterion met

Incoming: Determine whether this compound shows IC50 lower than 50 nM (ties excluded): C#Cc1c(F)ccc2cccc(-c3c(F)cc4c(N5CCC[C@@](C)(O)C5)nc(OC[C@@]56CCCN5C[C@H](F)C6)nc4c3F)c12 [Ex-47]
Outgoing: criterion not met

Incoming: Determine whether this compound shows IC50 lower than 50 nM (ties excluded): CN(C)C[C@@]1(COc2nc(N3CCC[C@@](C)(O)C3)c3cc(F)c(-c4cccc5ccc(F)c(Cl)c45)c(F)c3n2)CC1(F)F [Ex-14]
Outgoing: criterion not met

Incoming: Determine whether this compound shows IC50 lower than 50 nM (ties excluded): CC1(O)CCCCN(c2nc(OC[C@@]34CCCN3C[C@H](F)C4)nc3c(F)c(-c4cc(O)cc5cccc(Cl)c45)c(F)cc23)C1 (single isomer, unassigned) [Ex-36]
Outgoing: criterion not met

Incoming: Determine whether this compound shows IC50 lower than 50 nM (ties excluded): C#Cc1cccc2cccc(-c3c(F)cc4c(N5CCC[C@](C)(O)C5)nc(OC[C@@]56CCCN5C[C@H](F)C6)nc4c3F)c12 (single isomer, unassigned) [Ex-46]
Outgoing: criterion not met

Incoming: Determine whether this compound shows IC50 lower than 50 nM (ties excluded): Cc1cc2[nH]ncc2c(-c2c(F)cc3c(N4CCOC[C@@](C)(O)C4)nc(OC[C@@]45CCCN4C[C@H](F)C5)nc3c2F)c1C(F)(F)F [Ex-41]
Outgoing: criterion met

Incoming: Determine whether this compound shows IC50 lower than 50 nM (ties excluded): C#Cc1c(F)ccc2cccc(-c3c(F)cc4c(N5CCC[C@@](C)(O)C5)nc(OC[C@@]56CCCN5[C@H](COC(=O)N(C)C)CC6)nc4c3F)c12 [Ex-45]
Outgoing: criterion met

Incoming: Determine whether this compound shows IC50 lower than 50 nM (ties excluded): Cc1cc2[nH]ncc2c(-c2c(F)cc3c(N4CCC[C@H](O)CC4)nc(OC[C@@]45CCCN4C[C@H](F)C5)nc3c2F)c1C(F)(F)F [Ex-40]
Outgoing: criterion not met

Incoming: Determine whether this compound shows IC50 lower than 50 nM (ties excluded): C#Cc1cccc2cc(O)cc(-c3ncc4c(N5CCC[C@@](C)(O)C5)nc(OCC56CCCN5CCC6)nc4c3F)c12 [Ex-22]
Outgoing: criterion met

Incoming: Determine whether this compound shows IC50 lower than 50 nM (ties excluded): CC1CN(c2nc(OC[C@@]34CCCN3C[C@H](F)C4)nc3c(F)c(-c4cc(O)cc5cccc(Cl)c45)c(F)cc23)CC(C)(O)C1 (single isomer, unassigned) [Ex-33]
Outgoing: criterion not met

Incoming: Determine whether this compound shows IC50 lower than 50 nM (ties excluded): C#Cc1cccc2cc(O)cc(-c3ncc4c(N5CCC[C@@](C)(O)C5)nc(OC[C@@]56CCCN5C[C@H](F)C6)nc4c3F)c12 [Ex-23]
Outgoing: criterion met

Incoming: Determine whether this compound shows IC50 lower than 50 nM (ties excluded): CN(C)CC1(COc2nc(N3CCCC(C)(O)C3)c3cc(F)c(-c4cc(O)ccc4OC(F)(F)F)c(F)c3n2)CC1 (centres unmarked) [Ex-9]
Outgoing: criterion not met

Incoming: Determine whether this compound shows IC50 lower than 50 nM (ties excluded): CN(C)CC1(COc2nc(N3CCC[C@@](C)(O)C3)c3cnc(-c4cc(O)cc5cccc(Cl)c45)c(F)c3n2)CC1 [Ex-20]
Outgoing: criterion met

Incoming: Determine whether this compound shows IC50 lower than 50 nM (ties excluded): Cc1cc(N)nc(-c2c(Cl)cc3c(N4CCCC(C)(O)C4)nc(OC[C@@]45CCCN4C[C@H](F)C5)nc3c2F)c1C(F)(F)F (single isomer, unassigned) [Ex-26]
Outgoing: criterion not met
